Please respond with reported IC50 for every item in the list.
Tested on: LoVo
Experiment Description: Antiproliferative activity against human LoVo cells after 72 hrs by sulforhodamine B assay
Format: functional, cell-based
Answer with a number only, understood to be in nM.

Quick one: IC50 of `Cc1c2ccccc2nc2c1c1cc(NC(=N)N)ccc1n2CCN(C)C.Cl.Cl.Cl.Cl` ?
9380

And `Cc1c2ccccc2nc2c1c1cc(N)ccc1n2CCN(C)C` ?
77

And `Cc1c2c3cc(NC(=O)CNC(=N)N)ccc3nc-2n(C)c2ccccc12.Cl.Cl.Cl` ?
830

And `Cc1c2c3cc(NC(=N)N)ccc3nc-2n(C)c2ccccc12.Cl.Cl` ?
76900

And `Cc1c2c3cc(N)ccc3nc-2n(C)c2ccccc12` ?
70
